# procedure.text: NCI Yeast Anticancer Drug Screen. Data for the CLN2oe strain (AID 163)
# experimental.context: S. cerevisiae CLN2oe strain, at 11.0 µM, hits give high values
About 79,000 compounds went through this panel and 15% of them were active in at least one assay; those are over-represented in the sample as a whole.
Values of growth inhibition greater than or equal to 10% map to fulfilled; values below map to not fulfilled.

Study these solved cases before continuing.
>>> print(df.to_string())
                                   compound          group
0                 Nc1ccccc1C(=O)OCCc1ccccc1      fulfilled
1                  Cc1ccc2nc3sc(=O)sc3nc2c1      fulfilled
2                           Oc1cccc2cccnc12      fulfilled
3  CN(C)CCC(C(=O)C(Br)Br)(c1ccccc1)c1ccccc1      fulfilled
4  CC1CN1C1=C(Cl)C(=O)C(N2CC2C)=C(Cl)C1=O (stereo not drawn)  not fulfilled

Input line: Hi team, for "CC1=C2C(=C[C@@](C)(CO)[C@@H]2O)C(=O)[C@](C)(O)C12CC2" , is the recorded growth inhibition at or above 10%?
Output line: not fulfilled

Input line: Hi team, for "O=c1oc2ccccc2c(O)c1C(c1ccc2c(c1)Cc1ccccc1-2)c1c(O)c2ccccc2oc1=O" , is the recorded growth inhibition at or above 10%?
Output line: fulfilled

Input line: Hi team, for CC1CN=C(Nc2ccccc2)S1 (stereo not drawn) , is the recorded growth inhibition at or above 10%?
Output line: not fulfilled

Input line: Hi team, for COC(COC(=O)N1CCN(C=O)CC1)C1=C(N2CC2)C(=O)C(C)=C(N2CC2)C1=O (stereo not drawn) , is the recorded growth inhibition at or above 10%?
Output line: fulfilled

Input line: Hi team, for "C[N+](CCCl)(CCCl)Cc1cccc2cccc([N+](=O)[O-])c12" , is the recorded growth inhibition at or above 10%?
Output line: not fulfilled

Input line: Hi team, for "COc1cc2ccccc2c2cc([N+](=O)[O-])oc12" , is the recorded growth inhibition at or above 10%?
Output line: not fulfilled

Input line: Hi team, for OCC(O)C(O)CO (stereo not drawn) (tested in a mixture with another compound) , is the recorded growth inhibition at or above 10%?
Output line: not fulfilled

Input line: Hi team, for "CCCCCNC(=O)c1c(O)[nH]c(=S)[nH]c1=O" , is the recorded growth inhibition at or above 10%?
Output line: not fulfilled

Input line: Hi team, for "O=P(Oc1ccc(Cl)cc1)(Oc1ccc(Cl)cc1)N1CC1" , is the recorded growth inhibition at or above 10%?
Output line: not fulfilled

Input line: Hi team, for CCC1(O)C(=O)OCc2c1cc1n(c2=O)Cc2cc3cc(Cl)ccc3nc2-1 (stereo not drawn) , is the recorded growth inhibition at or above 10%?
Output line: fulfilled

Input line: Hi team, for "O=C(/C=C(\c1ccccc1)N1CC1)c1ccccc1" , is the recorded growth inhibition at or above 10%?
Output line: not fulfilled

Input line: Hi team, for O=C(O)C1C2c3ccccc3C(c3ccccc32)C1C(=O)O (stereo not drawn) , is the recorded growth inhibition at or above 10%?
Output line: not fulfilled

Input line: Hi team, for COC1CC(CC2CCC(C)C(C(C)C(=O)O)O2)OC2(OC(C)(C3CCC(C)(C4OC(C5OC(O)(CO)C(C)CC5C)CC4C)O3)CC2C)C1C (stereo not drawn) , is the recorded growth inhibition at or above 10%?
Output line: fulfilled

Input line: Hi team, for "Oc1cccc2nc3ccccc3nc12" , is the recorded growth inhibition at or above 10%?
Output line: not fulfilled
